Provide the recorded DC50 for the entries that follow.
Target: SMARCA4 (Homo sapiens, UniProt P51532)
Construct: endogenous in cells; host or cells: MV4-11
Sequence (P51532 whole entry): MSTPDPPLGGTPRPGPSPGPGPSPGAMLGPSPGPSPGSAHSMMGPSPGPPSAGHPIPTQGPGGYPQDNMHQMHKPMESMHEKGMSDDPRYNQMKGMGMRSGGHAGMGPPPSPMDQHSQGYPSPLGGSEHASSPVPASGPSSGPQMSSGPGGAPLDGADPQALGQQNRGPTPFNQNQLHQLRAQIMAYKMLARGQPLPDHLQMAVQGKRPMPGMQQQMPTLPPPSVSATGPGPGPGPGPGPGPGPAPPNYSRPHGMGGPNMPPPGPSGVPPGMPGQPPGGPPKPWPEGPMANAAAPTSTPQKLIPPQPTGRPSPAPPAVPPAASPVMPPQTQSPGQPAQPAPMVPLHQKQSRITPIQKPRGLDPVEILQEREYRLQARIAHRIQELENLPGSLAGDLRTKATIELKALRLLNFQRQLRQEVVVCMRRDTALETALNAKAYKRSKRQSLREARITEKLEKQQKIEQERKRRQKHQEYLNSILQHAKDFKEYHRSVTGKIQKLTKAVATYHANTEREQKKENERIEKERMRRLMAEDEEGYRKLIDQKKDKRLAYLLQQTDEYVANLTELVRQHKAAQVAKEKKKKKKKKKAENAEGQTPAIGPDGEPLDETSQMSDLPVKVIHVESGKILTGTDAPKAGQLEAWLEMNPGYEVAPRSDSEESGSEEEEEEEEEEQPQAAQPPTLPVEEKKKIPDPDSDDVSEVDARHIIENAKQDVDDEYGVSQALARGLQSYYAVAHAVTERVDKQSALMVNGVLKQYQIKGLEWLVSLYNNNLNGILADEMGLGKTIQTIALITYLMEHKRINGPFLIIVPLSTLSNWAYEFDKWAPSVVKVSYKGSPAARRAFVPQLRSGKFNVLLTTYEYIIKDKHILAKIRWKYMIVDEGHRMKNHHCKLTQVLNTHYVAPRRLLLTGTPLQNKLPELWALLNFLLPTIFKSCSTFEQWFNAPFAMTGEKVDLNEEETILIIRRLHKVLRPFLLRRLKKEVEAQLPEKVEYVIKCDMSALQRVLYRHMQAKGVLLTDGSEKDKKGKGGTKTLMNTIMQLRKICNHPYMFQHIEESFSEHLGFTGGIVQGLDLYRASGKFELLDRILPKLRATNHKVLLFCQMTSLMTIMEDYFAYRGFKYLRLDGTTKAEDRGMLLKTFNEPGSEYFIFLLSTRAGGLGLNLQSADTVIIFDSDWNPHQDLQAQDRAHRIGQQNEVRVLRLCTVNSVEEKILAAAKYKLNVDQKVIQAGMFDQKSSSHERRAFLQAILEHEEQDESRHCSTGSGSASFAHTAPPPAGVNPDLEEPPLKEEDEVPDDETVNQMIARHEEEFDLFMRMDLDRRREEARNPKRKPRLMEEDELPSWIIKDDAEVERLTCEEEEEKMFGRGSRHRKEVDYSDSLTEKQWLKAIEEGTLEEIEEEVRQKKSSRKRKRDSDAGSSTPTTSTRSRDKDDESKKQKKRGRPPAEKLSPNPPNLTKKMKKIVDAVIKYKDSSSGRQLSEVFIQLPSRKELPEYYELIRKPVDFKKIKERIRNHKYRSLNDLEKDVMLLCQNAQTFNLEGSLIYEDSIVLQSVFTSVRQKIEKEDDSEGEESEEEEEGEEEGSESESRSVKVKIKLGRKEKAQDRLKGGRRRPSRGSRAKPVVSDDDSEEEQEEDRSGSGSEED
Experiment: SMARCA4 Western blot MV4-11 degradation
Type: cell-based
Conditions: MV4-11 cells, 24 hours, read-out: SMARCA4 WB MV411 degradation 24h: Average external-Abs DC50

Consider the worked cases shown below.
compound	meas value
Cc1ncsc1-c1ccc(CNC(=O)[C@@H]2C[C@@H](O)CN2C(=O)[C@@H](NC(=O)[C@H]2CC[C@@H](c3cnc(N4CCC(c5c[nH]c6nnc(-c7ccccc7O)cc56)CC4)nc3)CC2)C(C)(C)C)cc1 [I-45]	< 0.1 µM
Cc1ncsc1-c1ccc(CNC(=O)[C@@H]2C[C@@H](O)CN2C(=O)[C@@H](NC(=O)CN(C)Cc2cnc(N3CCC(c4c[nH]c5nnc(-c6ccccc6O)cc45)CC3)nc2)C(C)(C)C)cc1 [I-50]	> 1 µM
Cc1ncsc1-c1ccc(CNC(=O)[C@@H]2C[C@@H](O)CN2C(=O)[C@@H](NC(=O)C2(F)CC2)C(C)(C)C)c(OCCN2CCC(c3c[nH]c4nnc(-c5ccccc5O)cc34)CC2)c1 [I-47]	> 1 µM

Okay, here is my list. What is DC50 for each of these?
1. Cc1ncsc1-c1ccc(CNC(=O)[C@@H]2C[C@@H](O)CN2C(=O)[C@@H](NC(=O)CCCN(C)Cc2cnc(N3CCC(c4c[nH]c5nnc(-c6ccccc6O)cc45)CC3)nc2)C(C)(C)C)cc1 [I-51]
2. Cn1c(=O)n(C2CCC(=O)NC2=O)c2cccc(CCCCCN3CCC(c4c[nH]c5nnc(-c6ccccc6O)cc45)CC3)c21 (centres unmarked) [I-10]

> 1 µM
< 0.1 µM

----------
Target: SMARCA4 (Homo sapiens, UniProt P51532)
Construct: endogenous in cells; host or cells: MV4-11
Test: SMARCA4 Western blot MV4-11 degradation
Type: cell-based
Conditions: MV4-11 cells, 24 hours, read-out: SMARCA4 WB MV411 degradation 24h: Average external-Abs DC50
Exercise: for every item that follows, state its recorded DC50.

compound	test system	readout name	meas value
Cn1c(=O)n(C2CCC(=O)NC2=O)c2cccc(CCCOCCCN3CCC(c4c[nH]c5nnc(-c6ccccc6O)cc45)CC3)c21 (stereo not drawn)	SMARCA4 (Homo sapiens, UniProt P51532)	DC50	0.1 to 0.5 µM
Cn1c(=O)n(C2CCC(=O)NC2=O)c2ccc(CCCCCCCCCN3CCC(c4c[nH]c5nnc(-c6ccccc6O)cc45)CC3)cc21 (stereo not drawn)	SMARCA4 (Homo sapiens, UniProt P51532)	DC50	< 0.1 µM
Cc1ncsc1-c1ccc(CNC(=O)[C@@H]2C[C@@H](O)CN2C(=O)[C@@H](NC(=O)C2(F)CC2)C(C)(C)C)c(OCCCCCCN2CCC(c3c[nH]c4nnc(-c5ccccc5O)cc34)CC2)c1	SMARCA4 (Homo sapiens, UniProt P51532)	DC50	0.501 to 1 µM
Cc1ncsc1-c1ccc(CNC(=O)[C@@H]2C[C@@H](O)CN2C(=O)[C@@H](NC(=O)CCCCCN(C)Cc2cnc(N3CCC(c4c[nH]c5nnc(-c6ccccc6O)cc45)CC3)nc2)C(C)(C)C)cc1	SMARCA4 (Homo sapiens, UniProt P51532)	DC50	> 1 µM
Cn1c(=O)n(C2CCC(=O)NC2=O)c2cccc(CN3CCC(c4c[nH]c5nnc(-c6ccccc6O)cc45)CC3)c21 (stereo not drawn)	SMARCA4 (Homo sapiens, UniProt P51532)	DC50	< 0.1 µM

Field: next compound
Summary: Cc1ncsc1-c1ccc(CNC(=O)[C@@H]2C[C@@H](O)CN2C(=O)[C@@H](NC(=O)CN2CCC(c3cnc(N4CCC(c5c[nH]c6nnc(-c7ccccc7O)cc56)CC4)nc3)CC2)C(C)(C)C)cc1 , SMARCA4 (Homo sapiens, UniProt P51532), DC50 = < 0.1 µM
